Values compiled from ChEMBL document CHEMBL1129782.

# TARGET: Polyunsaturated fatty acid 5-lipoxygenase (Rattus norvegicus)
# MEASUREMENT_PROTOCOL: Ex vivo inhibitory activity at an peroral dose of 10 mg/Kg against LTB4 biosynthesis in rat blood, after pretreatment period of 6 hr
# Assay type: functional
RESULT_TYPE: inhibition (%)

Solved cases below.
COc1ccc(-c2nc(COc3ccc(CN(O)C(N)=O)cc3)cs2)cc1 ... 69
NC(=S)N(O)Cc1cccc(OCc2coc(-c3ccc(F)cc3)n2)c1 ... 0
NC(=O)N(O)Cc1ccc(OCc2csc(-c3ccc(C(F)(F)F)cc3)n2)cc1 ... 0
COc1ccc(-c2nc(COc3cccc(CN(O)C(N)=O)c3)cs2)cc1 ... 0
Cc1oc(-c2ccccc2)nc1COc1cccc(CN(O)C(N)=O)c1 ... 0

P. NC(=O)N(O)Cc1cccc(OCc2csc(-c3ccccc3)n2)c1
Q. Cc1oc(-c2ccccc2)nc1COc1ccc(CN(O)C(N)=O)cc1
Please state the entry with greater inhibition among P and Q . Mark your selection by writing its label. P

A. NC(=O)N(O)Cc1ccc(OCc2csc(-c3ccccc3)n2)cc1
B. Cc1oc(-c2ccc(Cl)cc2)nc1COc1cccc(CN(O)C(N)=O)c1
Select one. Lower inhibition: A or B Mark your selection by writing its label. B
(B: 38%, A: 67%)
